Attribution: ChEMBL document CHEMBL3826947

System: Human adenovirus 5
measurement protocol: Antiviral activity against HAdV5 infected in human A549 cells assessed as inhibition of viral genome entry in nucleus by measuring nuclear associated viral DNA level at 50 uM after 45 mins by real time PCR method (reference value: 78.55 +/- 1.37%)
Format: functional
Parameters: scale not given: the % may be the effect or the level left
endpoint label: Activity (%)
// units = %; emit number, no label

## Input Given the compound O=C(c1cc2ccccc2o1)N1CCN(C(=O)Nc2ccc(Cl)cc2)C(c2ccccc2)C1 (stereo unspecified) , what is its reported Activity?
## Output 77.71

## Input Entry under review: O=C(c1cc2ccccc2o1)N1CCN(C(=O)Nc2cc(C(F)(F)F)ccc2Cl)C(c2ccccc2)C1 (stereo unspecified) . Reported Activity?
## Output 85

## Input Returns the measured Activity for the input compound. Input: O=C(c1cc2ccccc2o1)N1CCN(C(=O)Nc2ccccc2[N+](=O)[O-])C(c2ccccc2)C1 (stereo unspecified)
## Output 79.26

## Input Activity for CC(C)(C)OC(=O)N1CCN(C(=O)Nc2ccc([N+](=O)[O-])cc2)C(c2ccccc2)C1 (stereo unspecified) ?
## Output 77.96

## Input Return reported Activity; argument: N#Cc1ccc(NC(=O)N2CCN(C(=O)c3cc4ccccc4o3)CC2c2ccccc2)cc1 (stereo unspecified)
## Output 81.05

## Input So what's the measured Activity for this one? O=C(c1cc2ccccc2o1)N1CCN(C(=O)Nc2ccc([N+](=O)[O-])cc2)C(c2ccccc2)C1 (stereo unspecified)
## Output 77.99

###

Please respond with reported CC50 at 48 h for every item in the list.
measurement protocol: Cytotoxicity against human A549 cells assessed as cell viability after 48 hrs by Alamar blue assay
Format: cell-based
Number in µM, nothing else.

## Input // query CC50 at 48 h value for entry CC(C)(C)OC(=O)N1CCN(C(=O)Nc2cc(C(F)(F)F)ccc2Cl)C(c2ccccc2)C1 (centres undefined)
## Output 93.4

## Input # lookup: CC50 at 48 h of COc1ccc(NC(=O)N2CCN(C(=O)C(C)(C)C)CC2c2ccccc2)cc1 (centres undefined)
## Output 199

## Input Could you tell me which CC50 at 48 h is on file for CC(C)(C)OC(=O)N1CCN(C(=O)Nc2ccccc2[N+](=O)[O-])C(c2ccccc2)C1 (centres undefined) ?
## Output 82.2

## Input Param item = CC1CN(C(=O)OC(C)(C)C)CCN1C(=O)Nc1ccc(Cl)cc1 (centres undefined) ; retrieve measured CC50 at 48 h.
## Output 150

## Input Give the measured CC50 at 48 h of CC1CN(C(=O)c2cc3ccccc3o2)CCN1C(=O)Nc1ccccc1[N+](=O)[O-] (centres undefined) .
## Output 203

## Input Entry CC(C)(C)OC(=O)N1CCN(C(=O)Nc2ccc(C(F)(F)F)cc2)C(c2ccccc2)C1 (centres undefined) has what CC50 at 48 h?
## Output 42.1

## Input Give its CC50 at 48 h value. Item: CC1CN(C(=O)OC(C)(C)C)CCN1C(=O)Nc1ccc(C(F)(F)F)cc1 (centres undefined)
## Output 137

## Input Bench note: what CC50 at 48 h did CC1CN(C(=O)c2cc3ccccc3o2)CCN1C(=O)Nc1ccc(C(F)(F)F)cc1 (centres undefined) show?
## Output 82.2

## Input Give the measured CC50 at 48 h of CC(C)(C)OC(=O)N1CCN(C(=O)Nc2ccc(F)cc2)C(c2ccccc2)C1 (centres undefined) .
## Output 110
